# Test system: Rab7 GTPase wild type (dog), Bodipy-FL-GTP binding
# ASSAY_EXPLANATION: modulators of GTP binding to Rab7, primary screen, biochemical, wildtype, multiplex bead flow cytometry (AID 758);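 further: median green fluorescence of bound Bodipy-FL-GTP per Rab7 bead population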
# ASSAY_CONDITIONS: GST-Rab7 beads, fluorescent GTP binding, at 10 µM, actives lie on both sides, untreated = 100%, excess cold GTP = 0%
Hit rate of the full screen: of about 190,000 compounds, about 110 (0.058%) were called active. Another 2% or so got no clear call; they are omitted. What follows is part of a selection rich in actives, with near analogues and random picks from the rest.
MEASURED_ATTRIBUTE: GTP binding activity (percent of control) (%)

[
  {
    "COMPOUND": "CC(Nc1nc(N2CCN(CCO)CC2)nc2ccccc12)c1ccccc1 (stereo not given)",
    "MEASUREMENT": 98
  },
  {
    "COMPOUND": "CCOC(=O)/C(C#N)=C/c1cn(CCC(=O)O)nc1-c1ccc(Br)cc1",
    "MEASUREMENT": 102
  },
  {
    "COMPOUND": "Cc1ccc(NC(=O)C2(N3CCC3=O)CCCCC2)cc1",
    "MEASUREMENT": 105
  },
  {
    "COMPOUND": "Cc1ccc(N2C(=O)C(CC(=O)Nc3cccc(F)c3)N(CCc3ccncc3)C2=O)cc1 (stereo not given)",
    "MEASUREMENT": 97
  },
  {
    "COMPOUND": "C=CCN(CC=C)S(=O)(=O)c1ccc(C(=O)Nc2sc3c(c2C(N)=O)CCCCC3)cc1",
    "MEASUREMENT": 103
  }
]

###

# Test system: Rab7 GTPase wild type (dog), Bodipy-FL-GTP binding
# ASSAY_EXPLANATION: modulators of GTP binding to Rab7, primary screen, biochemical, wildtype, multiplex bead flow cytometry (AID 758);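 further: median green fluorescence of bound Bodipy-FL-GTP per Rab7 bead population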
# ASSAY_CONDITIONS: GST-Rab7 beads, fluorescent GTP binding, at 10 µM, actives lie on both sides, untreated = 100%, excess cold GTP = 0%
Out of some 190,000 compounds screened, about 110 (0.058%) were called active. Inconclusive results (about 2%) are left out. The entries come from a sample that favours actives as a whole.
MEASURED_ATTRIBUTE: GTP binding activity (percent of control) (%)

[
  {
    "MOLECULE": "CC(C)(C)C(=O)NCCCNc1ccc([N+](=O)[O-])cc1",
    "MEASUREMENT": 94
  },
  {
    "MOLECULE": "Cc1ccc(NC(=O)c2ccc(Oc3ncccn3)cc2)cc1",
    "MEASUREMENT": 97
  },
  {
    "MOLECULE": "Fc1cccc(CSc2nnc3ccc(-c4ccncc4)nn23)c1",
    "MEASUREMENT": 94
  },
  {
    "MOLECULE": "O=C(CS(=O)(=O)c1ccccc1)Nc1ccc(S(=O)(=O)Nc2ccccn2)cc1",
    "MEASUREMENT": 107
  },
  {
    "MOLECULE": "CC(=O)NCC(=O)N1CCCC(C(=O)c2ccc3c4c(cccc24)CC3)C1 (stereo unspecified)",
    "MEASUREMENT": 98
  },
  {
    "MOLECULE": "CCN(CC)CCNS(=O)(=O)c1ccc(/C=C/C(=O)O)cc1",
    "MEASUREMENT": 98
  },
  {
    "MOLECULE": "Cc1nnc(SCC(=O)NNC(=O)c2ccc(Cl)cc2)n1CC1CCCO1 (stereo unspecified)",
    "MEASUREMENT": 100
  },
  {
    "MOLECULE": "COc1ccc(-c2nc(CN3CCN(c4ncccn4)CC3)c(C)o2)cc1C",
    "MEASUREMENT": 95
  },
  {
    "MOLECULE": "CCOC(=O)c1ccc(N2C(=O)CC(N3CCN(C(=O)c4ccccc4)CC3)C2=O)cc1 (stereo unspecified)",
    "MEASUREMENT": 97
  },
  {
    "MOLECULE": "CN(C)/C=C(/C(=O)c1ccccc1Cl)S(C)(=O)=O",
    "MEASUREMENT": 104
  },
  {
    "MOLECULE": "O=[N+]([O-])c1ccc2[nH]c3c(c2c1)CCCC3O (stereo unspecified)",
    "MEASUREMENT": 103
  },
  {
    "MOLECULE": "Oc1ccc(-c2nncn2-c2ccccc2)cc1",
    "MEASUREMENT": 99
  },
  {
    "MOLECULE": "Cc1cccc(N2CCN(c3ccc(C(N)=O)cc3[N+](=O)[O-])CC2)c1C",
    "MEASUREMENT": 95
  },
  {
    "MOLECULE": "CN(C)C(=O)N1CCNCC1",
    "MEASUREMENT": 106
  },
  {
    "MOLECULE": "COC(=O)c1ccc(NCC(=O)N2CCCCCC2)cc1",
    "MEASUREMENT": 106
  },
  {
    "MOLECULE": "O=C(NNC(=O)C1C2CCC(C2)C1C(=O)O)c1ccc(Cl)cc1 (stereo unspecified)",
    "MEASUREMENT": 103
  }
]
